Reference source: the OligoGym collection

Conditions: siRNA; further: test system not given here
HELM strings list units from the 5' end as sugar, base in round brackets, then linkage (d deoxyribose, r ribose, m 2'-O-methyl, p phosphodiester). Strings are as the collection lists them, not checked against the first reports. ss, as = sense and antisense strand; [lna] = locked nucleic acid (LNA); [una] = unlocked nucleic acid; [hna] = hexitol nucleic acid
Would you mind telling me the reported target mRNA knockdown of each entry?
Numbers only, in %.

In the examples that follow, each entry is paired with its recorded target mRNA knockdown.
# Substance, Endpoint name, Display unit, Readout value
measured = [
    ("RNA1{r(C)p.r(U)p.r(C)p.r(C)p.r(U)p.r(U)p.r(C)p.r(A)p.r(U)p.r(U)p.r(C)p.r(C)p.r(A)p.r(G)p.r(C)p.r(C)p.m(U)p.r(A)p.r(U)p.r(T)p.r(T)}|RNA2{r(A)p.m(U)p.r(A)p.r(G)p.r(G)p.r(C)p.r(U)p.r(G)p.r(G)p.r(A)p.r(A)p.r(U)p.r(G)p.r(A)p.r(A)p.r(G)p.r(G)p.r(A)p.r(G)p.r(T)p.r(T)}$$$RNA1{StrandType:ss}|RNA2{StrandType:as}$", "target mRNA knockdown", "%", 81),
    ("RNA1{r(A)p.r(A)p.r(C)p.r(C)p.r(C)p.r(A)p.r(C)p.r(C)p.r(A)p.r(C)p.r(A)p.r(G)p.r(C)p.m(U)p.r(A)p.r(G)p.r(A)p.r(A)p.r(C)p.m(U)p.m(U)}|RNA2{r(A)p.r(A)p.r(G)p.r(U)p.r(U)p.r(C)p.r(U)p.r(A)p.r(G)p.r(C)p.r(U)p.r(G)p.r(U)p.r(G)p.r(G)p.r(U)p.r(G)p.r(G)p.r(G)p.r(U)p.r(U)}$$$RNA1{StrandType:ss}|RNA2{StrandType:as}$", "target mRNA knockdown", "%", 81),
    ("RNA1{r(G)p.[hna](A)p.r(C)p.r(G)p.r(U)p.r(A)p.r(A)p.[hna](A)p.r(C)p.r(G)p.r(G)p.r(C)p.r(C)p.[hna](A)p.r(C)p.r(A)p.[hna](A)p.r(G)p.r(U)p.r(U)p.r(C)}|RNA2{r(A)p.r(C)p.[lna](T)p.r(U)p.r(G)p.[lna](T)p.r(G)p.r(G)p.r(C)p.r(C)p.r(G)p.r(U)p.r(U)p.[lna](T)p.r(A)p.r(C)p.r(G)p.[lna](T)p.r(C)p.[lna](G)p.[lna](C)}$$$RNA1{StrandType:ss}|RNA2{StrandType:as}$", "target mRNA knockdown", "%", 3.6),
    ("RNA1{r(G)p.r(U)p.r(A)p.r(U)p.r(G)p.r(A)p.r(C)p.r(C)p.r(G)p.r(A)p.r(C)p.r(U)p.r(A)p.r(C)p.r(G)p.r(C)p.r(G)p.r(U)p.r(A)p.r(T)p.r(T)}|RNA2{r(U)p.r(U)p.r(C)p.r(A)p.r(G)p.r(U)p.r(G)p.r(U)p.[una](G)p.r(A)p.r(U)p.r(G)p.r(A)p.r(C)p.r(A)p.r(C)p.r(U)p.r(U)p.r(G)p.r(T)p.r(T)}$$$RNA1{StrandType:ss}|RNA2{StrandType:as}$", "target mRNA knockdown", "%", 89),
    ("RNA1{r(G)p.r(C)p.r(G)p.r(A)p.r(G)p.r(C)p.r(A)p.r(G)p.r(A)p.r(G)p.r(A)p.r(A)p.r(U)p.r(C)p.m(U)p.r(A)p.r(C)p.r(C)p.r(U)p.r(T)p.r(T)}|RNA2{r(A)p.r(G)p.r(G)p.m(U)p.r(A)p.r(G)p.r(A)p.r(U)p.r(U)p.r(C)p.r(U)p.r(C)p.r(U)p.r(G)p.r(C)p.r(U)p.r(C)p.r(G)p.r(C)p.r(T)p.r(T)}$$$RNA1{StrandType:ss}|RNA2{StrandType:as}$", "target mRNA knockdown", "%", 90),
]

Need target mRNA knockdown for each of these substances.
1. RNA1{r(A)p.r(A)p.r(C)p.r(C)p.r(C)p.r(A)p.r(C)p.r(C)p.r(A)p.r(C)p.r(A)p.r(G)p.r(C)p.m(U)p.m(A)p.r(G)p.r(A)p.r(A)p.r(C)p.r(U)p.r(U)}|RNA2{r(A)p.r(A)p.r(G)p.r(U)p.r(U)p.r(C)p.r(U)p.r(A)p.r(G)p.r(C)p.r(U)p.r(G)p.r(U)p.r(G)p.r(G)p.r(U)p.r(G)p.r(G)p.r(G)p.r(U)p.r(U)}$$$RNA1{StrandType:ss}|RNA2{StrandType:as}$
2. RNA1{r(C)p.r(U)p.r(U)p.r(A)p.r(C)p.r(G)p.r(C)p.r(U)p.r(G)p.r(A)p.r(G)p.r(U)p.r(A)p.r(C)p.r(U)p.r(U)p.r(C)p.r(G)p.r(A)p.[lna](T)p.[lna](T)}|RNA2{r(U)p.r(C)p.r(G)p.r(A)p.r(A)p.r(G)p.r(U)p.r(A)p.r(C)p.r(U)p.r(C)p.r(A)p.r(G)p.r(C)p.r(G)p.r(U)p.r(A)p.r(A)p.r(G)p.d(T)p.d(T)}$$$RNA1{StrandType:ss}|RNA2{StrandType:as}$
3. RNA1{r(G)p.r(U)p.r(A)p.r(U)p.r(G)p.r(A)p.r(C)p.r(C)p.r(G)p.r(A)p.r(C)p.r(U)p.r(A)p.r(C)p.r(G)p.r(C)p.r(G)p.r(U)p.r(A)p.r(T)p.r(T)}|RNA2{r(U)p.r(U)p.r(C)p.r(A)p.r(G)p.r(U)p.r(G)p.r(U)p.r(G)p.r(A)p.[una](U)p.r(G)p.r(A)p.r(C)p.r(A)p.r(C)p.r(U)p.r(U)p.r(G)p.r(T)p.r(T)}$$$RNA1{StrandType:ss}|RNA2{StrandType:as}$
4. RNA1{r(U)p.r(U)p.r(U)p.r(C)p.r(A)p.r(C)p.r(U)p.r(A)p.r(C)p.r(U)p.r(C)p.r(C)p.r(U)p.r(A)p.r(C)p.r(G)p.r(A)p.r(G)p.r(C)p.d(T)p.d(T)}|RNA2{r(G)p.r(C)p.r(U)p.r(C)p.r(G)p.r(U)p.r(A)p.r(G)p.r(G)p.r(A)p.r(G)p.r(U)p.r(A)p.r(G)p.r(U)p.r(G)p.r(A)p.r(A)p.r(A)p.d(T)p.d(T)}$$$RNA1{StrandType:ss}|RNA2{StrandType:as}$

Outgoing:
[79, 96, 0, 0]
